The reported measurements were obtained from patent US20160120863A1.

STUDY TARGET: human GLUT2 (Homo sapiens, UniProt P11168)
Construct: expressed in transfected cells
Sequence (P11168 1-524): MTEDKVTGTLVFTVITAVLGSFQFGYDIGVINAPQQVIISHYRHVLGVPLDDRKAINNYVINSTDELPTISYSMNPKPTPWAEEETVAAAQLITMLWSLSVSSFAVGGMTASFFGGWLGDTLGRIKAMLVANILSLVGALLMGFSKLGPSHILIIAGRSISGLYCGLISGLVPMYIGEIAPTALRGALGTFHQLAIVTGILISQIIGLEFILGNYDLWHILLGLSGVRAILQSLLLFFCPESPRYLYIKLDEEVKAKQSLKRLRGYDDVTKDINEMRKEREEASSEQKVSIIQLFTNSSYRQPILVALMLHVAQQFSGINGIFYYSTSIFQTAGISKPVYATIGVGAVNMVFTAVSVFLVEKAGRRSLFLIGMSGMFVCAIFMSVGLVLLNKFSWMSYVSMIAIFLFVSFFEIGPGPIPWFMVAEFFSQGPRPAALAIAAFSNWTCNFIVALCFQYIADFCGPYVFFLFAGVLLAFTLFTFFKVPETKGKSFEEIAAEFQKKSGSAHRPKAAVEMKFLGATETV
TEST METHOD NOTES: [3H]-deoxy-D-glucose uptake assay, GLUT2
Format: cell-based
CONDITION: [3H]-deoxy-D-glucose uptake in HEK293 cells stably expressing human GLUT2
PARAMETER MEASURED: GLUT2 pIC50

Consider the following illustrative entries.
# CHEMICAL SMILES, PARAMETER MEASURED, DATA VALUE
measured = [
    ("CN(c1ccc2nc(-c3ccc(Cl)cc3)c(CN3CCNC(=O)C3)n2c1)S(C)(=O)=O", "GLUT2 pIC50", "++ (pIC50 5.00-5.99)"),
    ("CC(=O)N1CCN(Cc2c(-c3ccc(Cl)cc3)nc3ccc(N(C)S(C)(=O)=O)cn23)CC1", "GLUT2 pIC50", "++ (pIC50 5.00-5.99)"),
    ("CS(=O)(=O)Nc1ccc2nc(-c3ccc(Cl)cc3Cl)c(CN3CCCOCC3)n2c1", "GLUT2 pIC50", "++ (pIC50 5.00-5.99)"),
    ("CC(=O)N1CCN(Cc2c(-c3ccc(Cl)cc3)nc3cnc(C4CC4)cn23)CC1", "GLUT2 pIC50", "+++ (pIC50 ≧ 6.00)"),
    ("CC(=O)N1CCN(Cc2c(-c3ccc(Cl)cc3)nc3ccc(NS(C)(=O)=O)cn23)CC1", "GLUT2 pIC50", "++ (pIC50 5.00-5.99)"),
]

Prompt: Any idea what GLUT2 pIC50 was measured for `CC(=O)N1CCN(Cc2c(-c3ccc(Cl)cc3)nc3ccc(NS(=O)(=O)C(C)C)cn23)CC1` ?
Response: ++ (pIC50 5.00-5.99)

Prompt: Any idea what GLUT2 pIC50 was measured for `CS(=O)(=O)Nc1ccc2nc(-c3ccc(Cl)cc3Cl)c(CN3CCN(C(=O)c4ccc(F)cc4)CC3)n2c1` ?
Response: ++ (pIC50 5.00-5.99)

Prompt: Any idea what GLUT2 pIC50 was measured for `CC(=O)N1CCN(Cc2c(-c3ccc(Cl)cc3Cl)nc3ccc(N4CCCCS4(=O)=O)cn23)CC1` ?
Response: +++ (pIC50 ≧ 6.00)
